target: glutathione-S-transferase (GST) tagged LXRbeta LBD (ligand binding domain) (Homo sapiens); construct: purchased Invitrogen pv4658.pps; assay: LanthaScreen TR-FRET Liver X Receptor Coactivator Assay, co-activator recruitment to LXRbeta LBD; format: biochemical; conditions: efficacy in relation to reference dual agonist T0901317; read-out: LXR beta Activity @ max dose
Sequence (P55055 222-460 limits assumed): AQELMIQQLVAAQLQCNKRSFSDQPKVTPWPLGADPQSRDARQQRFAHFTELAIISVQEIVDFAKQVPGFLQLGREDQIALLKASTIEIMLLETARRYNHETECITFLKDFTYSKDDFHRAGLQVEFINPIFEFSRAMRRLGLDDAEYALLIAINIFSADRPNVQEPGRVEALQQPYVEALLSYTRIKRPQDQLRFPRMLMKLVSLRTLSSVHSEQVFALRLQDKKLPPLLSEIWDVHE
Classify as follows. Reported Emax greater than or equal to 50%: yes. Reported Emax below: no.

{"LINE NOTATION": "CCOc1cccc([C@@](O)(C(=O)N2CCC(CC3CCN(c4ccc(C(N)=O)c(Cl)c4)CC3)CC2)C(F)(F)F)c1", "ASSIGNED LABEL": "no"}
{"LINE NOTATION": "CN(C)C(=O)c1ccc(N2CCC(CC3CCN(S(=O)(=O)c4cc(F)ccc4F)CC3)CC2)cc1Cl", "ASSIGNED LABEL": "yes"}
{"LINE NOTATION": "CN(C)C(=O)c1ccc(N2CCC(CC3CCN(S(=O)(=O)c4cccc(OC(F)F)c4)CC3)CC2)cc1Cl", "ASSIGNED LABEL": "yes"}
{"LINE NOTATION": "COc1cccc(CS(=O)(=O)N2CC(CC3CCN(c4ccc(C(=O)N(C)C)c(Cl)n4)CC3)C2)c1", "ASSIGNED LABEL": "no"}
{"LINE NOTATION": "CN(C)C(=O)c1ccc(N2CCC(CC3CCN(S(=O)(=O)c4cccc(OC(F)(F)F)c4)CC3)CC2)cc1Cl", "ASSIGNED LABEL": "no"}
{"LINE NOTATION": "CN(C)C(=O)c1ccc(N2CCC(CC3CCN(S(=O)(=O)c4ccc(F)cc4)CC3)CC2)cc1Cl", "ASSIGNED LABEL": "yes"}

----------
biological target: glutathione-S-transferase (GST) tagged LXRbeta LBD (ligand binding domain) (Homo sapiens); construct: purchased Invitrogen pv4658.pps; assay: LanthaScreen TR-FRET Liver X Receptor Coactivator Assay, co-activator recruitment to LXRbeta LBD; assay type: biochemical; conditions: potency (Inflection Point, IP), co-activator recruitment to LXRbeta LBD, in relation to T0901317; read-out: LXR beta IP
Listed here: items and their measured EC50.
READOUT NAME: EC50 (nM)

{"COMPOUND": "CN(C)C(=O)c1ncc(N2CCC(CC3CCN(C(=O)[C@](O)(c4ccccc4)C(F)(F)F)CC3)CC2)cc1Cl", "READOUT NAME": "EC50", "U": "nM", "VAL": 19}
{"COMPOUND": "CNC(=O)c1ccc(N2CCC(CC3CCN(C(=O)[C@](O)(c4cccc(C(C)C)c4)C(F)(F)F)CC3)CC2)nc1Cl", "READOUT NAME": "EC50", "U": "nM", "VAL": 17}
{"COMPOUND": "CN(C)C(=O)c1ccc(N2CCC(CC3CCN(C(=O)C(O)(c4cccc(F)c4)C(F)F)CC3)CC2)cc1Cl (stereo not shown)", "READOUT NAME": "EC50", "U": "nM", "VAL": 27}
{"COMPOUND": "CN(C)C(=O)c1ccc(N2CCCN(CC3CCN(C(=O)C(O)(c4cccc(Cl)c4)C(F)(F)F)CC3)CC2)cc1Cl (stereo not shown)", "READOUT NAME": "EC50", "U": "nM", "VAL": 533}

----------
target: glutathione-S-transferase (GST) tagged LXRalpha LBD (ligand binding domain) (Homo sapiens); construct: purchased Invitrogen pv4655; experiment: LanthaScreen TR-FRET Liver X Receptor Coactivator Assay, co-activator recruitment to LXRalpha LBD; format: biochemical; conditions: efficacy at max dose, in relation to reference dual agonist T0901317; read-out: LXR alpha Activity @ max dose (%)
Sequence (Q13133 209-447 limits assumed): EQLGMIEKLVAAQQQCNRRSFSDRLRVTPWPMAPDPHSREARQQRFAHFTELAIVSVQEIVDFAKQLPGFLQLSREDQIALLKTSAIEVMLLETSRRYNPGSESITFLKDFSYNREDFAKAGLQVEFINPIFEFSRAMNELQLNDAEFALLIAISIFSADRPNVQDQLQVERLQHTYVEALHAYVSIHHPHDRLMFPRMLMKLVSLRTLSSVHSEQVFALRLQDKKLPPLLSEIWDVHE
Heads up, the class ranges for Emax are bottom bin (below 10%), middle bin (10% to below 30%), top bin (30% or more)

{"MOLECULE": "CNC(=O)c1ccc(N2CCC(CC3CCN(C(=O)[C@](O)(c4cccc(OC)c4)C(F)(F)C(F)(F)F)CC3)CC2)cc1Cl", "ASSIGNED LABEL": "top bin"}
{"MOLECULE": "COc1cccc([C@@](O)(C(=O)N2CCC(CN3CCN(c4ccc(C(=O)N(C)C)c(Cl)c4)CC3)CC2)C(F)(F)F)c1", "ASSIGNED LABEL": "bottom bin"}
{"MOLECULE": "CN(C)C(=O)c1ccc(N2CCC(CC3CCN(C(=O)[C@](O)(c4ccccc4)C(F)(F)C(F)(F)F)CC3)CC2)nc1Cl", "ASSIGNED LABEL": "top bin"}
{"MOLECULE": "COc1cccc([C@@](O)(C(=O)N2CC(CC3CCN(c4ccc(C(=O)N(C)C)c(C)n4)CC3)C2)C(F)(F)F)c1", "ASSIGNED LABEL": "middle bin"}
{"MOLECULE": "CN(C)C(=O)c1ccc(N2CCC(CC3CCN(C(=O)[C@](O)(c4cccc(CC#N)c4)C(F)(F)F)CC3)CC2)cc1Cl", "ASSIGNED LABEL": "bottom bin"}
{"MOLECULE": "COc1cccc([C@@](O)(C(=O)N2CC(CC3CCN(c4ccc(C(=O)N(C)C)c(Cl)n4)CC3)C2)C(F)(F)F)c1", "ASSIGNED LABEL": "middle bin"}
{"MOLECULE": "CNC(=O)c1ccc(N2CCC(CC3CCN(C(=O)[C@](O)(c4cc(F)cc(OC)c4)C(F)(F)F)CC3)CC2)cc1Cl", "ASSIGNED LABEL": "middle bin"}
{"MOLECULE": "O=C(c1ccc(N2CCC(CC3CCN(C(=O)[C@](O)(c4ccccc4)C(F)(F)F)CC3)CC2)cc1Cl)N1CCC(n2ccnc2)C1 (stereo partly shown)", "ASSIGNED LABEL": "middle bin"}
{"MOLECULE": "CC(C)C(O)(C(=O)N1CCC(CC2CCN(c3ccc(C(=O)N(C)C)c(Cl)c3)CC2)CC1)c1ccccc1 (stereo not shown)", "ASSIGNED LABEL": "middle bin"}
{"MOLECULE": "CN(C)C(=O)c1ccc(N2CCC(CC3CCN(C(=O)[C@](O)(c4cccc(Br)c4)C(F)(F)F)CC3)CC2)nc1Cl", "ASSIGNED LABEL": "bottom bin"}
{"MOLECULE": "Cc1cc(N2CCC(CC3CCN(C(=O)[C@](O)(c4cc(F)cc(Cl)c4)C(F)(F)F)CC3)CC2)ccc1C(=O)N(C)C", "ASSIGNED LABEL": "top bin"}
{"MOLECULE": "Cc1cc(N2CCC(CC3CCN(C(=O)[C@](O)(c4ccccc4)C(F)(F)F)CC3)CC2)ccc1C(=O)N(C)C", "ASSIGNED LABEL": "top bin"}
{"MOLECULE": "CCOc1cccc([C@@](O)(C(=O)N2CCC(CC3CCN(c4ccc(C(=O)N(C)C)c(Cl)c4)CC3)CC2)C(F)(F)F)c1", "ASSIGNED LABEL": "bottom bin"}

----------
molecular target: glutathione-S-transferase (GST) tagged LXRbeta LBD (ligand binding domain) (Homo sapiens); construct: purchased Invitrogen pv4658.pps; assay: LanthaScreen TR-FRET Liver X Receptor Coactivator Assay, co-activator recruitment to LXRbeta LBD; format: biochemical; details: co-activator recruitment to GST-LXRbeta LBD, TR-FRET; read-out: LXR beta IP (Inflection Point, potency)
pEC50: −log10 of the molar value.

{"LINE NOTATION": "COc1cccc(S(=O)(=O)N2CC(CC3CCN(c4ccc(C(=O)N(C)C)c(Cl)n4)CC3)C2)c1", "TESTED TARGET": "glutathione-S-transferase (GST) tagged LXRbeta LBD (ligand binding domain) (Homo sapiens)", "pEC50": 7.30}
{"LINE NOTATION": "CN(C)C(=O)c1ccc(N2CCC(CC3CCN(S(=O)(=O)c4ccccc4F)CC3)CC2)cc1Cl", "TESTED TARGET": "glutathione-S-transferase (GST) tagged LXRbeta LBD (ligand binding domain) (Homo sapiens)", "pEC50": 7.37}
{"LINE NOTATION": "COc1cccc(CS(=O)(=O)N2CC(CC3CCN(c4ccc(C(=O)N(C)C)c(Cl)c4)CC3)C2)c1", "TESTED TARGET": "glutathione-S-transferase (GST) tagged LXRbeta LBD (ligand binding domain) (Homo sapiens)", "pEC50": 6.22}
{"LINE NOTATION": "CN(C)C(=O)c1ccc(N2CCC(CC3CCN(S(=O)(=O)c4cc(F)ccc4F)CC3)CC2)cc1Cl", "TESTED TARGET": "glutathione-S-transferase (GST) tagged LXRbeta LBD (ligand binding domain) (Homo sapiens)", "pEC50": 7.28}
{"LINE NOTATION": "CN(C)C(=O)c1ccc(N2CCC(CC3CN(S(=O)(=O)c4ccccc4)C3)CC2)cc1Cl", "TESTED TARGET": "glutathione-S-transferase (GST) tagged LXRbeta LBD (ligand binding domain) (Homo sapiens)", "pEC50": 7.21}
{"LINE NOTATION": "CN(C)C(=O)c1ccc(N2CCC(CC3CCN(S(=O)(=O)c4cc(F)cc(C(F)(F)F)c4)CC3)CC2)cc1Cl", "TESTED TARGET": "glutathione-S-transferase (GST) tagged LXRbeta LBD (ligand binding domain) (Homo sapiens)", "pEC50": 6.77}
{"LINE NOTATION": "COc1cccc(S(=O)(=O)N2CCC(CC3CCN(c4ccc(C(=O)N(C)C)c(Cl)c4)CC3)CC2)c1", "TESTED TARGET": "glutathione-S-transferase (GST) tagged LXRbeta LBD (ligand binding domain) (Homo sapiens)", "pEC50": 7.01}
{"LINE NOTATION": "CC(C)c1cccc([C@@](O)(C(=O)N2CCC(CC3CCN(c4ccc(C(N)=O)c(Cl)c4)CC3)CC2)C(F)(F)F)c1", "TESTED TARGET": "glutathione-S-transferase (GST) tagged LXRbeta LBD (ligand binding domain) (Homo sapiens)", "pEC50": 8.10}
{"LINE NOTATION": "CCOc1cccc([C@@](O)(C(=O)N2CCC(CC3CCN(c4ccc(C(N)=O)c(Cl)c4)CC3)CC2)C(F)(F)F)c1", "TESTED TARGET": "glutathione-S-transferase (GST) tagged LXRbeta LBD (ligand binding domain) (Homo sapiens)", "pEC50": 8.40}
